B1: tRNA (parent)
chain: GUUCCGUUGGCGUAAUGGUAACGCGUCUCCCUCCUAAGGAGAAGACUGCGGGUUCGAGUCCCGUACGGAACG

# Variants of: B1
# test.details: yeast fitness relative to wild type (ratio to wild type); higher = fitter; tRNA-Arg(CCU), competitive growth, 37 C, YPD
This sample holds only a part of the variants without activity.

changes	yeast fitness
G9C C24U U26G C62U	≤ 0.5
G6A C30G G67C	≤ 0.5
C5A U47C	0.85
A15G U19C C29U A37G	≤ 0.5
U19A C24G G38A G58C C60U C62U C66U	≤ 0.5
U2C A15U U16A	0.62
C5G A14U A37U A45C C62U	≤ 0.5
C11U C31U A65C	0.52
A15U A37G C66G	≤ 0.5
C4G G9A A45C A57C G58C	≤ 0.5
G25A A65C	1.01

Provenance of the data: the RNAGym collection of RNA variant scans (doi:10.1126/science.aae0568)
